optical density: recorded values
- target: mouse ACVR2A (mouse, UniProt P27038 20-135, limits assumed); note: test concentration or dose not given here
- Sequence (P27038 20-135 limits assumed): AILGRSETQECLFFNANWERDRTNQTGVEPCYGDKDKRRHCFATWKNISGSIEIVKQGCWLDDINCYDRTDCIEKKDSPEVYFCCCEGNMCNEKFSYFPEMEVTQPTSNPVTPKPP
- measurementNotes: ELISA
Reply with just the number (in OD).

These solved cases illustrate the format of a correct answer.
{"columns": ["binder", "optical density [OD]"],
 "data": [
  ["368_D03 (antibody, V domains shown, Group II) VH: EVQLLESGGGLVQPGGSLRLSCAASGFTFSDYSMHWVRQAPGKGLEWVASINYNGGYTSYADSVKGRFTISRDNSKNTLYLQMNSLRAEDTAVYYCARAATWHDTHLDYWGQGTLVTVSS VL: DIQMTQSPSSLSASVGDRVTITCRASQSIITYVNWYQQKPGKAPKLLIYATTSRASGVPSRFSGSGSGTDFTLTISSLQPEDFATYYCQQSYDLPLTFGGGTKVEIK", 2.55],
  ["365_D03 (antibody, V domains shown, Group II) VH: EVQLLESGGGLVQPGGSLRLSCAASGFTFDDYSMHWVRQAPGKGLEWVASINYNGGYKSYADSVKGRFTISRDNSKNTLYLQMNSLRAEDTAVYYCARAATWHDTHLDYWGQGTLVTVSS VL: DIQMTQSPSSLSASVGDRVTITCRASQSIVSYLNWYQQKPGKAPKLVIYAATSRASGVPSRFSGSGSGTDFTLTISSLQPEDFATYYCQQSYDSPLTFGGGTKVEIK", 2.48]
]}

Query: optical density; subject: 367_C12 (antibody, V domains shown, Group II) VH: EVQLLESGGGLVQPGGSLRLSCAASGFTFSSYGMHWVRQAPGKGLEWVSGINYNGGYTSYADSVKGRFTISRDNSKNTLYLQMNSLRAEDTAVYYCARAATWHDTHLDYWGQGTLVTVSS VL: DIQMTQSPSSLSASVGDRVTITCRASQSILSYVNWYQQKPGKAPKLLIYATTSRHSGVPSRFSGSGSGTDFTLTISSLQPEDFATYYCQQSYESPLTFGGGTKVEIK
2.1
